Experimental Target: T1, synthetic biotin-8xGA (also: biotin, position not given here)
T1 construct: also called synthetic 8×GA; poly-(GA)8 peptide
T1 peptide: GAGAGAGAGAGAGAGA
Experimental Details: SPR (Biacore T200), biotin-8xGA captured on Biotin CAPture chip, Fab as analyte, 1:1 model
Ends that are not written are not given here.
This section presents binders with their documented koff values.
Answer format: numeric, s⁻¹ implied, no suffix.

Binder: NI-308.5J10 WT Fab-6His (WT-Fab-6His / WT light chain) (Fab, V domains shown, The heavy chain is VH-CH1 with a C-terminal hexahistidine tag; also called 5J10 Fab) VH: SETLSLTYTVLGGSVSDYYWSCIRQPAGKGLEWIGRTYTNGKTTYTYNPSLESRLSLSIDTSMNQFSLKLTSVTAADTAVYYCARWGAVTGDYYYGMDVWGPGTLVTVSS VL: EIVLTQSPLSLSVTPGEPASISCRSPRSLLHTNGYTYLDWYLQRPGQSPQLLIFLASNRASGVPDRFSGSGSGTNFTLRISGVEADDVGVYYCMQGLQPSWTFGQGTKVEIKR
Unit Info: s⁻¹
koff: 0.0078

## Input Any idea what koff was measured for NI-308.5J10 variant WT-Fab-6His / N75D light chain (Fab, V domains shown, Plasmids SDD178 and SDD177; also called LC N75D Fab; 5J10-LC N75D Fab) VH: SETLSLTYTVLGGSVSDYYWSCIRQPAGKGLEWIGRTYTNGKTTYTYNPSLESRLSLSIDTSMNQFSLKLTSVTAADTAVYYCARWGAVTGDYYYGMDVWGPGTLVTVSS VL: EIVLTQSPLSLSVTPGEPASISCRSPRSLLHTNGYTYLDWYLQRPGQSPQLLIFLASNRASGVPDRFSGSGSGTDFTLRISGVEADDVGVYYCMQGLQPSWTFGQGTKVEIKR ?
## Output 0.0059

## Input Sample NI-308.5J10 variant N54T-Fab-6His / N75D light chain (Fab, V domains shown, Plasmids SDD180 and SDD177; also called HC N54T/LC N75D Fab; 5J10-LC N75D, HC N54T Fab) VH: SETLSLTYTVLGGSVSDYYWSCIRQPAGKGLEWIGRTYTTGKTTYTYNPSLESRLSLSIDTSMNQFSLKLTSVTAADTAVYYCARWGAVTGDYYYGMDVWGPGTLVTVSS VL: EIVLTQSPLSLSVTPGEPASISCRSPRSLLHTNGYTYLDWYLQRPGQSPQLLIFLASNRASGVPDRFSGSGSGTDFTLRISGVEADDVGVYYCMQGLQPSWTFGQGTKVEIKR — what was its koff?
## Output 0.0076
